IC50 overview
# ASSAY_SYSTEM: BACE1 enzyme (Homo sapiens, UniProt P56817)
# Construct: was derived from HEK293 cells; endogenous in cells; washed 48,000 x g pellet of the cell homogenate
# Sequence (P56817 46-501): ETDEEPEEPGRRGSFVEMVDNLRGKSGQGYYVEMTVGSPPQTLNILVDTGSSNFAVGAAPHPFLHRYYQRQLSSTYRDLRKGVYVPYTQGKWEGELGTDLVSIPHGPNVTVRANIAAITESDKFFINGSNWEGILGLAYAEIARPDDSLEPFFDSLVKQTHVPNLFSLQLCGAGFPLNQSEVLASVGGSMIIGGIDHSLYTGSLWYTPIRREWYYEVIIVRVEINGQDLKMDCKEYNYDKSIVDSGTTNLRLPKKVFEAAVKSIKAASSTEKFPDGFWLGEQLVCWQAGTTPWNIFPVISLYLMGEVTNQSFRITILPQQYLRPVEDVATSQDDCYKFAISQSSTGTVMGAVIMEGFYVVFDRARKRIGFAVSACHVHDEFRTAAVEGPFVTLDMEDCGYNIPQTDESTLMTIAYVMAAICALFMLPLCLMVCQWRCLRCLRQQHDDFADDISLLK
# ASSAY_EXPLANATION: Radioligand displacement (binding) assay with radiolabeled BACE inhibitor on HEK293-9B.A1 cell homogenate
ASSAY_METRIC: IC50

ENTRY_SMILES	ASSAY_SYSTEM	OBSERVED
COc1ccc(-c2noc(C)c2C(=O)N=C(N)NCc2cc(Cl)cc(C=CCCO)c2)cc1	BACE1 enzyme (Homo sapiens, UniProt P56817)	100 to 1000 nM
COc1ccc(-c2nsc(C)c2C(=O)/N=C(/N)NCc2cc(Cl)c(N)c(Br)c2)cc1	BACE1 enzyme (Homo sapiens, UniProt P56817)	< 100 nM
COc1ccc(-c2noc(C)c2C(=O)/N=C(/N)NCc2cc(Cl)c(N)c(Br)c2)cc1	BACE1 enzyme (Homo sapiens, UniProt P56817)	100 to 1000 nM
COc1ccc(-c2nsc(C)c2C(=O)NC(N)=NCc2cc(C)c(NC(C)=O)c(Cl)c2)cc1	BACE1 enzyme (Homo sapiens, UniProt P56817)	< 100 nM
COc1ccc(-c2n[nH]c(C)c2C(=O)N=C(N)NCc2cc(Cl)c(N)c(Cl)c2)cc1	BACE1 enzyme (Homo sapiens, UniProt P56817)	100 to 1000 nM
COC/C=C/c1cc(Cl)cc(CN/C(N)=N/C(=O)c2c(-c3ccc(OC)cc3)noc2C)c1	BACE1 enzyme (Homo sapiens, UniProt P56817)	100 to 1000 nM
COc1ccc(-c2nsc(C)c2C(=O)/N=C(/N)NCc2cc(Cl)c(N)c(Cl)c2)cc1	BACE1 enzyme (Homo sapiens, UniProt P56817)	< 100 nM
COc1ccc(-c2nsc(C)c2C(=O)/N=C(\N)NCc2cc(Cl)cc(CNC(=O)/C=C/c3ccccc3)c2)cc1	BACE1 enzyme (Homo sapiens, UniProt P56817)	< 100 nM
COC/C=C/c1cc(CN/C(N)=N/C(=O)c2c(-c3ccc(OC)cc3)noc2C)cc(Cl)c1N	BACE1 enzyme (Homo sapiens, UniProt P56817)	< 100 nM
COC/C=C/c1cc(CN/C(N)=N/C(=O)c2c(-c3ccc(OC)cc3)nsc2C)cc(Cl)c1N	BACE1 enzyme (Homo sapiens, UniProt P56817)	< 100 nM
COc1ccc(-c2nsc(C)c2C(=O)/N=C(\N)NCc2cc(Cl)c(NC(C)=O)c(Cl)c2)cc1	BACE1 enzyme (Homo sapiens, UniProt P56817)	< 100 nM
Cc1noc(-c2ccccc2)c1C(=O)/N=C(\N)NCc1cc(Cl)c(N)c(Cl)c1	BACE1 enzyme (Homo sapiens, UniProt P56817)	100 to 1000 nM
CCOC(=O)NCc1cc(Cl)cc(CN/C(N)=N/C(=O)c2c(-c3ccc(OC)cc3)noc2C)c1	BACE1 enzyme (Homo sapiens, UniProt P56817)	100 to 1000 nM
